// reported pIC50 for each item listed
# Target Entity: Ectonucleotide pyrophosphatase/phosphodiesterase family member 3 (Homo sapiens, UniProt O14638)
# Sequence (O14638 whole entry): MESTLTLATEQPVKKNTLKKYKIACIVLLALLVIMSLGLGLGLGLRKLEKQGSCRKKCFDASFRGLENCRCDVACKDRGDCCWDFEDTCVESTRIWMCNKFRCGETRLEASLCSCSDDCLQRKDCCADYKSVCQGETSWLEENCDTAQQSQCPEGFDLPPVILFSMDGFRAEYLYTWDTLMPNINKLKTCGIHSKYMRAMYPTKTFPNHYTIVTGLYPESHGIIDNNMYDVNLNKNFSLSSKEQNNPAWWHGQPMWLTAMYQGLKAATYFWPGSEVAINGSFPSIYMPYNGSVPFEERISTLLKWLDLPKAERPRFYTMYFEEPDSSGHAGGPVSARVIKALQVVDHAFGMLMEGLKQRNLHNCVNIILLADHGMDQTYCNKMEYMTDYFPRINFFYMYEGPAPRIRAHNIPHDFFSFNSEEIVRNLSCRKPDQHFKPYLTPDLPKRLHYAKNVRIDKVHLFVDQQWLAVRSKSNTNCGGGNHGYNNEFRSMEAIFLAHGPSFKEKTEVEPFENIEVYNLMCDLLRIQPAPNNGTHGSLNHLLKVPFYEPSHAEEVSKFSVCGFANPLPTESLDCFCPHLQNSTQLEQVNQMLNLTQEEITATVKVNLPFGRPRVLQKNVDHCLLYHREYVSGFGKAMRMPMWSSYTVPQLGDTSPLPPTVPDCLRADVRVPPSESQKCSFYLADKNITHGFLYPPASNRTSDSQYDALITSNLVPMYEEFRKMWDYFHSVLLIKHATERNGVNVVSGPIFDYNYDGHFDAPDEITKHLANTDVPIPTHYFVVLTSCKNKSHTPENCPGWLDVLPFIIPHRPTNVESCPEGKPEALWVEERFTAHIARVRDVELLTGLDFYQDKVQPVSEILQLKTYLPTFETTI
# Experimental Protocol: Inhibition of ENPP3 (unknown origin) assessed as reduction in 2'3'-cGAMP hydrolysis by AMP-Glo assay
pIC50: −log10 of the molar value.
Assay Metric: pIC50

{"Structure String": "Cc1nc2ncnn2c(N(C)C)c1Cc1cccc(O)c1", "Value": "< 4.30"}
{"Structure String": "Cc1nc2ncnn2c(N(C)C)c1Cc1ccccc1", "Value": "< 4.30"}
{"Structure String": "Cc1nc2ncnn2c(N(C)C)c1Cc1cccc(N)c1", "Value": "< 4.30"}
{"Structure String": "Cc1nc2ncnn2c(NCc2ccc(C(=O)O)cc2)c1Cc1cccc(N)c1", "Value": "< 4.30"}

---

# Target Entity: Ectonucleotide pyrophosphatase/phosphodiesterase family member 1 (Homo sapiens, UniProt P22413)
# Sequence (P22413 whole entry): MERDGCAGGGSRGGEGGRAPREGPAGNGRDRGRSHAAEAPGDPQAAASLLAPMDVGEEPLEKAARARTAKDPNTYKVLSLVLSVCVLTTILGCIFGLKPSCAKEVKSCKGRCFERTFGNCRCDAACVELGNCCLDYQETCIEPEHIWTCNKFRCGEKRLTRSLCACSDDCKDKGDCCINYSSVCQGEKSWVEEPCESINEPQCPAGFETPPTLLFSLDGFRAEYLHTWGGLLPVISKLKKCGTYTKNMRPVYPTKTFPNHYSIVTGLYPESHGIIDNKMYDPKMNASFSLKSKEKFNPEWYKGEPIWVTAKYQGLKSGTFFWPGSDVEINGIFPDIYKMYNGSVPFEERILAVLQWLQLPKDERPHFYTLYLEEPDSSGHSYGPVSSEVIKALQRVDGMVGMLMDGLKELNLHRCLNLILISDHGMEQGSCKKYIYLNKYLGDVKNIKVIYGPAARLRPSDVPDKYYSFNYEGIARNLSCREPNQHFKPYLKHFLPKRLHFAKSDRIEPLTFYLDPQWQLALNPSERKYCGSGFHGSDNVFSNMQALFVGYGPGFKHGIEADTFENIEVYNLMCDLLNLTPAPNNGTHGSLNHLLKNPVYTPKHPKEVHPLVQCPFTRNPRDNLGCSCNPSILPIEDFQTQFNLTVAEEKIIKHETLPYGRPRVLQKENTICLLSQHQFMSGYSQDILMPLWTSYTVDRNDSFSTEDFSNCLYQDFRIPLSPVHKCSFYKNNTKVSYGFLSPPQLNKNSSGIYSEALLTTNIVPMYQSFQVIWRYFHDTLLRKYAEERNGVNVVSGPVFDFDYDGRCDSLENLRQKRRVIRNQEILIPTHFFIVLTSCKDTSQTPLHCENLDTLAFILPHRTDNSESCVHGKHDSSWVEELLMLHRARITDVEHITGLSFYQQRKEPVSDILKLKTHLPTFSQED
# Experimental Protocol: Inhibition of ENPP1 (unknown origin)
Assay Metric: IC50 (µM)

{"Structure String": "Cc1nc2ncnn2c(N(C)C)c1Cc1ccc(Cl)cc1", "Relation Sign": "=", "Value": 5.7}
{"Structure String": "CCNc1c(Cc2ccccc2)c(C)nc2ncnn12", "Relation Sign": "=", "Value": 22}
{"Structure String": "Cc1nc2ncnn2c(NCCO)c1Cc1ccccc1", "Relation Sign": ">", "Value": 30}
{"Structure String": "Cc1nc2ncnn2c(N(C)C)c1Cc1cccc([N+](=O)[O-])c1", "Relation Sign": "=", "Value": 3.6}
{"Structure String": "Cc1nc2ncnn2c(N(C)C)c1Cc1cccc(F)c1", "Relation Sign": "=", "Value": 1.5}
{"Structure String": "CCCN(CCC)c1c(Cc2ccccc2)c(C)nc2ncnn12", "Relation Sign": ">", "Value": 30}
{"Structure String": "CC(=O)Nc1ccc(Cc2c(C)nc3ncnn3c2N(C)C)cc1", "Relation Sign": "=", "Value": 4.9}
{"Structure String": "COc1cccc(Cc2c(C)nc3ncnn3c2N(C)C)c1", "Relation Sign": "=", "Value": 1.6}
{"Structure String": "Cc1nc2ncnn2c(N(C)C)c1Cc1ccccc1Cl", "Relation Sign": "=", "Value": 2.5}
{"Structure String": "Cc1nc2ncnn2c(N(C)C)c1Cc1ccc(N)cc1", "Relation Sign": "=", "Value": 0.47}
{"Structure String": "Cc1nc2ncnn2c(N(C)C)c1CCc1ccccc1", "Relation Sign": "=", "Value": 23}
{"Structure String": "Cc1nc2ncnn2c(N(C)C)c1Cc1cccc(N)c1", "Relation Sign": "=", "Value": 0.26}
